Below: compounds with IC50 recorded for Cytochrome P450 3A4 (Homo sapiens, UniProt P08684) in separate published works.

In [3]: df
Out[3]:
                           compound  measured_quantity  test_result
0  Nc1nc2ccc(C(=O)NCc3ccccc3N)cc2s1               IC50  10 to 25 µM

Prompt line: Recorded IC50 of C[C@H]1CC[C@H](n2c3cnccc3c3cnc(Nc4ccc(N5CCNCC5)cn4)nc32)CC1 , please.
Response line: > 10 µM

Prompt line: Look up IC50 for this compound: CC(=O)N[C@@H](C)/C=C/c1cnc(Oc2ccc(OCC3CC3)cc2Cl)cn1
Response line: > 20 µM

Prompt line: Please look up its IC50: Cc1nc2c(-c3nnc[nH]3)cc(-c3ccnc(N)c3)cc2n1-c1ccnc2c(F)ccc(F)c12
Response line: > 25 µM

Prompt line: IC50 for CC1(c2ccccc2)CCCN(C(=O)NCc2ccc(Cl)cc2Cl)C1 (stereo unspecified) ?
Response line: < 10 µM

Prompt line: What IC50 value was documented for this compound, N[C@H]1CC[C@@H](Nc2cc(Br)cc3cc(C(=O)O)oc23)CC1 ?
Response line: > 10 µM

Prompt line: Any idea what its IC50 is? The compound is CC(=O)N[C@@H](C)/C=C/c1ccc(Oc2cc3sc(C)nc3cc2Cl)nc1
Response line: > 20 µM

Prompt line: Entry Nc1nc2ccc(C(=O)N(Cc3ccccc3)Cc3ccc(Cl)c(Cl)c3)cc2s1 : reported IC50 = ?
Response line: < 10 µM

Prompt line: Item c1ccc2nc(COc3ccc(-c4n[nH]cc4-c4ccncc4)cc3)ccc2c1 has what recorded IC50?
Response line: > 10 µM

Prompt line: # IC50 lookup, item C[C@@H]1CN(Cc2ccc3c(-c4cnn(C)c4)cc(C(N)=O)nc3c2)C[C@H](C(F)(F)F)O1
Response line: > 26 µM

Prompt line: Entry under review: CS(=O)(=O)c1ccc2c(c1)CCC1(CCN(C(=O)c3ccc(C(F)(F)F)cc3)CC1)O2 . Reported IC50?
Response line: > 10 µM

Prompt line: What measured IC50 goes with OC(Cn1cnnn1)(c1ccc(F)cc1F)C(F)(F)c1ccc(C#Cc2ccc(OCc3ccc(F)cc3)cc2)cn1 (stereo unspecified) ?
Response line: > 200 µM

Prompt line: Give its IC50 value. Item: Cc1ncc(-c2nc3c(-c4ccc5c(c4)[C@@]4(CCCN4C(=O)C4CC4)C(=O)N5C)ncnc3n2C)cn1
Response line: > 50 µM

Prompt line: IC50 lookup needed for C[C@@H]1COCCN1c1nc(-c2cncc3[nH]ccc23)cc2c1ncn2[C@@H](C)S(C)(=O)=O , thanks.
Response line: > 40 µM

Prompt line: State the recorded IC50 for this entry: Cn1ccc2cc(-n3c(=O)[nH]c4sc5c(c4c3=O)CCCC5)ccc21
Response line: > 30 µM

Prompt line: Sample CC(=O)N[C@@H](C)/C=C/c1ccc(Oc2ccc(OCC(F)F)cc2Cl)nc1 — what was its IC50?
Response line: > 20 µM
